Taken from patent US20210395313A1.

- ASSAY INFO: in vitro
- CONDITION SET: rat, plasma
Bridges are numbered along the chain shown (N, C = ends). Where no end group is shown, it is not given here.

SUBSTANCE: CDATCQFRKAIDDCHLLAWHANVPGSVFKACMKQKKKEFKAG-NH2 (disulfide 1-5, 14-31) [SEQ ID NO 140]
U: %
remaining at 6 h: 108
//
SUBSTANCE: CDATCQFRKAIDDCYYYAMHSNVPGSVWKACMKQKKKEFKAG-NH2 (disulfide 1-5, 14-31) [SEQ ID NO 150]
U: %
remaining at 6 h: 92.8
//
SUBSTANCE: CDATCQFRKAIDDCQKQAHHSNVPGSVFKACMKQKKKEFKAGY (disulfide 1-5, 14-31) [SEQ ID NO 164]
U: %
remaining at 6 h: 96.5
//
SUBSTANCE: CDATCQFRKAIDDCYYRSWHSNVPGSVFKACMKQKKKEWKAG-NH2 (disulfide 1-5, 14-31) [SEQ ID NO 77]
U: %
remaining at 6 h: 110
//
SUBSTANCE: GCDATCQFRKAIDDCVRQAHHSNVPGSVFKACMKQKKKEWKAGH (disulfide 2-6, 15-32) [SEQ ID NO 88]
U: %
remaining at 6 h: 100
//
SUBSTANCE: CDATCQFRKAIDDCARQAHHSNVPGSVFKACMKQKKKEWKAGH (disulfide 1-5, 14-31) [SEQ ID NO 151]
U: %
remaining at 6 h: 107

###

- TESTED SYSTEM: rat PAC1 receptor (Rattus norvegicus)
- Construct: SHSY-5Y (human neuroblastoma cell line) and RG-2 (rat glioma cell line) cells endogenously express human and rat PAC1 receptors, respectively; endogenous in cells; host or cells: RG-2 rat glioma cells
- Sequence (P32215 20-523): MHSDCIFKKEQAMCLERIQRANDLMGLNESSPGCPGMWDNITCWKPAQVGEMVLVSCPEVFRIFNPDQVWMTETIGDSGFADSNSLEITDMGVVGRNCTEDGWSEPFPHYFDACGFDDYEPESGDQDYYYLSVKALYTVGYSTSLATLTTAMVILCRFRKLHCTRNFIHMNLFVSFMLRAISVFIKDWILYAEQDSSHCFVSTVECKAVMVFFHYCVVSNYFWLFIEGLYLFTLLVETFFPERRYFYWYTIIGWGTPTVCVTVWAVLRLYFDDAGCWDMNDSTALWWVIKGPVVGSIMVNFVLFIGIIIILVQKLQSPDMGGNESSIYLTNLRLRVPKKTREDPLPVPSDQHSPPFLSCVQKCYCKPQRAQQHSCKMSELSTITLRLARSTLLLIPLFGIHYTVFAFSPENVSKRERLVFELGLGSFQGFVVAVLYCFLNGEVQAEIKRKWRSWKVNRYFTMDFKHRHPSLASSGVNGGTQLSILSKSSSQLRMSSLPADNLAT
- ASSAY INFO: LANCE Ultra cAMP accumulation antagonist assay in RG-2 cells;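 also: RG-2 rat glioma cells endogenously expressing PAC1, test peptide preincubated 30 min, then PAC1 agonist added at its EC80 for 15 min, cAMP accumulation read by LANCE Ultra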
- Assay type: cell-based
Bridges are numbered along the chain shown (N, C = ends). Where no end group is shown, it is not given here.

SUBSTANCE: CDATCQFRKAIDDCQKQAHHSNVPGSVFKACVKQKKKEFKAG-NH2 (disulfide 1-5, 14-31) [compound 142]
IC50: 1 to 100 nM
--
SUBSTANCE: CDATCQFRKAIDDCYYRSRHSNVPGSVFKACMKQKKKEFKAG-NH2 (disulfide 1-5, 14-31) [compound 44]
IC50: < 0.01 nM
--
SUBSTANCE: CDATCQFRKAIDDCAGTARHSNVPGSVFKACMKQKKKEWKAG-NH2 (disulfide 1-5, 14-31) [compound 446]
IC50: 1 to 100 nM
--
SUBSTANCE: CDATCQFRKAIDDCVRQAHHSNVPGSVFKACMKQKKKEWKAG-NH2 (disulfide 1-5, 14-31) [compound 79]
IC50: < 0.01 nM
--
SUBSTANCE: CDATCQFRKAIDDCQKQAHHSNVPGSVFKACMKQKKKEFKAGW (disulfide 1-5, 14-31) [compound 145]
IC50: 0.01 to 1 nM
--
SUBSTANCE: CDATCQFRKAIDDCYYRSKHSNVPGSVFKACMKQKKKEFKAG-NH2 (disulfide 1-5, 14-31) [compound 43]
IC50: < 0.01 nM
--
SUBSTANCE: CDATCQFRKAIDDCARQAHHSNVPGSVFKACMKQKKKEWKAGH (disulfide 1-5, 14-31) [SEQ ID NO 151]
IC50: 0.01 to 1 nM

###

- TESTED SYSTEM: human PAC1 receptor (Homo sapiens)
- Construct: SHSY-5Y (human neuroblastoma cell line) and RG-2 (rat glioma cell line) cells endogenously express human and rat PAC1 receptors, respectively; endogenous in cells; host or cells: SHSY-5Y human neuroblastoma cells
- ASSAY INFO: LANCE Ultra cAMP accumulation antagonist assay in SHSY-5Y cells
- Type: cell-based
Bridges are numbered along the chain shown (N, C = ends). Where no end group is shown, it is not given here.
ATTRIBUTE MEASURED: IC50

SUBSTANCE: CDATCQFRKAIDDCVRQAHHSNVPGSVFKACMKQKKKEWKAN (disulfide 1-5, 14-31) [compound 87]
TESTED SYSTEM: human PAC1 receptor (Homo sapiens)
ATTRIBUTE MEASURED: IC50
REPORTED: 0.01 to 1 nM
//
SUBSTANCE: CDATCQFRKAIDDCAKQAHHSNVPGSVFKSCMKQKKKEFKAG-NH2 (disulfide 1-5, 14-31) [compound 31]
TESTED SYSTEM: human PAC1 receptor (Homo sapiens)
ATTRIBUTE MEASURED: IC50
REPORTED: 0.01 to 1 nM
//
SUBSTANCE: CDATCQFRKAIDDCQKQAHHSNVPGSVFKACMKQKKKEFKAH (disulfide 1-5, 14-31) [compound 153]
TESTED SYSTEM: human PAC1 receptor (Homo sapiens)
ATTRIBUTE MEASURED: IC50
REPORTED: 1 to 100 nM
//
SUBSTANCE: CDATCQFRKAIDDCDRQAYHSNVPGSVFKACMKQKKKEWKAG-NH2 (disulfide 1-5, 14-31) [compound 144]
TESTED SYSTEM: human PAC1 receptor (Homo sapiens)
ATTRIBUTE MEASURED: IC50
REPORTED: 0.01 to 1 nM

###

- TESTED SYSTEM: human PAC1 receptor (Homo sapiens)
- Construct: SHSY-5Y (human neuroblastoma cell line) and RG-2 (rat glioma cell line) cells endogenously express human and rat PAC1 receptors, respectively; endogenous in cells; host or cells: SHSY-5Y human neuroblastoma cells
- Sequence (P41586 21-468): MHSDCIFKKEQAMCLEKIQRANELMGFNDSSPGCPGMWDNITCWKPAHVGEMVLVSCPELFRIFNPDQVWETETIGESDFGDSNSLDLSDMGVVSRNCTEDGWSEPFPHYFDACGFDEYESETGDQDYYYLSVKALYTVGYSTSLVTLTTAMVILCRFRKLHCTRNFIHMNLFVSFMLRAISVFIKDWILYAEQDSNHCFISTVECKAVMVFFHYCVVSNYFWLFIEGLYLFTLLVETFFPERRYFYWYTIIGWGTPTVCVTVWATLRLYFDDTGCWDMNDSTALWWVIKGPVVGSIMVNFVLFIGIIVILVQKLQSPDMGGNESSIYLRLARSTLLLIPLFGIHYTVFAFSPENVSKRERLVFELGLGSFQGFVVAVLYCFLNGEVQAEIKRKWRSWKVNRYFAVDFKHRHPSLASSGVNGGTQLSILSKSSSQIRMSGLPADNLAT
- ASSAY INFO: LANCE Ultra cAMP accumulation antagonist assay in SHSY-5Y cells
- Format: cell-based
Bridges are numbered along the chain shown (N, C = ends). Where no end group is shown, it is not given here.
Catalogue of IC50 values
ATTRIBUTE MEASURED: IC50

SUBSTANCE: CDATCQFRKAIDDCWKQAHHSNVPGSVFKACMKQKKKEFKAG-NH2 (disulfide 1-5, 14-31) [compound 80]
REPORTED: 0.01 to 1 nM

SUBSTANCE: CDATCQFRKAIDDCARQAHHSQVPGSVFKACMKQKKKEWKAGH (disulfide 1-5, 14-31) [compound 22]
REPORTED: 0.01 to 1 nM

SUBSTANCE: GCDATCQFRKAIDDCQKQAHHSNVPGSVFKACMKQKKKEFKAG-NH2 (disulfide 2-6, 15-32) [SEQ ID NO 181]
REPORTED: 1 to 100 nM

SUBSTANCE: CDATCQFRKAIDDCQKQAHHSNVPGSVFKACMKQRKKRWLAG-NH2 (disulfide 1-5, 14-31) [compound 126]
REPORTED: 0.01 to 1 nM

###

- TESTED SYSTEM: human PAC1 receptor (Homo sapiens)
- Construct: SHSY-5Y (human neuroblastoma cell line) and RG-2 (rat glioma cell line) cells endogenously express human and rat PAC1 receptors, respectively; endogenous in cells; host or cells: SHSY-5Y human neuroblastoma cells
- ASSAY INFO: LANCE Ultra cAMP accumulation antagonist assay in SHSY-5Y cells;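 also: inhibition of cAMP accumulation evoked by PAC1 agonist at its EC80 in SHSY-5Y cells endogenously expressing receptor, 30 min preincubation then 15 min agonist, TR-FRET readout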
- Type: cell-based
Bridges are numbered along the chain shown (N, C = ends). Where no end group is shown, it is not given here. [ ]: non-standard residue; d: D form. Pra = C#CC[C@H](N)C(=O)O
ATTRIBUTE MEASURED: IC50

SUBSTANCE: CDATCQFRKAIDDCLLRAWHSNVPGSVFKACMKQKKKEFKAG-NH2 (disulfide 1-5, 14-31) [SEQ ID NO 85]
ATTRIBUTE MEASURED: IC50
REPORTED: 0.01 to 1 nM
//
SUBSTANCE: CDATCQFRKAIDDCQKQAHHSNVSVFKECMKQKKKEFKAGK (disulfide 1-5, 14-29) [compound 397]
ATTRIBUTE MEASURED: IC50
REPORTED: 1 to 100 nM
//
SUBSTANCE: CDATCQFRKAIDDCARQAHHSNVPGSVFKACMKQKKKEWKAGH (disulfide 1-5, 14-31) [SEQ ID NO 151]
ATTRIBUTE MEASURED: IC50
REPORTED: 0.01 to 1 nM
//
SUBSTANCE: CDATCQFRKAIDDCAKQAHHSNVPGSVFKACMKQKKKEFKAGY (disulfide 1-5, 14-31) [SEQ ID NO 56]
ATTRIBUTE MEASURED: IC50
REPORTED: 0.01 to 1 nM
//
SUBSTANCE: CDATCQFRKAIDDCYYRSHSNVPGSVFKACMKQKKKEFKAG-NH2 (disulfide 1-5, 14-30) [compound 42]
ATTRIBUTE MEASURED: IC50
REPORTED: 0.01 to 1 nM
//
SUBSTANCE: CDATCQFRKAIDDCAKQAHHSNVPGSVFKACMKQKKKEWKAGH (disulfide 1-5, 14-31) [SEQ ID NO 152]
ATTRIBUTE MEASURED: IC50
REPORTED: 0.01 to 1 nM
//
SUBSTANCE: CEATCQFRKAIDDCARQAHHSNVPGSVFKACMKQKKKEWKAGH (disulfide 1-5, 14-31) [compound 11]
ATTRIBUTE MEASURED: IC50
REPORTED: 0.01 to 1 nM
//
SUBSTANCE: CDATCQFRKAIDDCQ[Pra]QAHHSNVPGSVFKACMKQKKKEFKAG-NH2 (disulfide 1-5, 14-31) [compound 33]
ATTRIBUTE MEASURED: IC50
REPORTED: 1 to 100 nM
//
SUBSTANCE: CDATCQFRKAIDDCVKQAHHSNVPGSVFKACMKQKKKEFKAGH (disulfide 1-5, 14-31) [SEQ ID NO 94]
ATTRIBUTE MEASURED: IC50
REPORTED: 0.01 to 1 nM
//
SUBSTANCE: CDATCQFRKAIDDCYYRSWHSNVPGSVFKACMKQRKKRWLAG-NH2 (disulfide 1-5, 14-31) [compound 69]
ATTRIBUTE MEASURED: IC50
REPORTED: 0.01 to 1 nM
//
SUBSTANCE: CDATCHFRKAIDDCYYRSWHSNVPGSVFKACMKQHKKRWRAG-NH2 (disulfide 1-5, 14-31) [compound 71]
ATTRIBUTE MEASURED: IC50
REPORTED: 0.01 to 1 nM
//
SUBSTANCE: CDATCQFRKAIDDCYKQAHHSNVPGSVFKACMKQKKKEFKAGH (disulfide 1-5, 14-31) [compound 47]
ATTRIBUTE MEASURED: IC50
REPORTED: 0.01 to 1 nM
//
SUBSTANCE: CDATCFFRKVIDDCQKQAHHSNVPGSVFKACMKQLKKRWQAG-NH2 (disulfide 1-5, 14-31) [compound 125]
ATTRIBUTE MEASURED: IC50
REPORTED: > 100 nM
//
SUBSTANCE: CDATCQFRKAIDDCAWFAMHSNVPGSVFKACMKQKKKEFKAG-NH2 (disulfide 1-5, 14-31) [compound 90]
ATTRIBUTE MEASURED: IC50
REPORTED: 0.01 to 1 nM
